- Tested on: GSC7 cells
- ASSAY METHOD TEXT: Nano-Glo Dual-Luciferase Reporter (Nanoglo DLR) assay of enhancer activity, fold change to mCMV
- Type: cell-based, human
- CONDITION: expression fold change of the individual enhancer compared to mCMV
# reported Fold change (Median); entries follow
Response body: numeric value in fold, unit text excluded.

Please review the following examples before continuing.
>  <MOLECULE>
ID0403-2: enhancer fragment, SEQ ID NO: 33 (nucleic acid) DNA: ATGTTAAACAGTGAAATCATCAGCAAAAAGCACAAAACTGCAGAAAACATGGCACTAAATAGAACACAAAAAGGACACTTGTTTACAGTATGAGAGCAGAAACAAGGAAACAGTGTTTCCTTGTTCAGCCACAGCTGGGACCTTGTGTGT

>  <OBSERVED MEASUREMENT>
24.9

$$$$
>  <MOLECULE>
ID0456: enhancer fragment, SEQ ID NO: 26 (nucleic acid) DNA: ATCACAAAGTGGTTAGCATGCAGGGGAGTGCGCCGGTCCCCCGCCTGTATTTGCATGACAAAAGCGCCTGCCCAACGGCTCTCGGTGGCTTTGTTGAGAGCTGCAGCCTCGCTCAGGCTGAGCCTTGGGAATTGTTCCCCGACATTGGTTGTTCCTGGGC

>  <OBSERVED MEASUREMENT>
27.2

$$$$

Query molecule follows.
*Q* Which value of Fold change (Median) has been reported for ID4431: enhancer fragment, SEQ ID NO: 35 (nucleic acid, listed as DNA, chemistry not given here) DNA: AAATGGTGATTATCATCATTTGTTCAGGGACATTAGCATGAAGGCCGAATGTTCTGGCACAAAGACACGTCTGTGGGACAGGCAC in the records?
*A* 21.2

These data points were gathered from patent US20260241035A1.
